Tested target: Aldehyde dehydrogenase 1A1 (Homo sapiens) (UniProt P00352)
Sequence (P00352 whole entry, looked up): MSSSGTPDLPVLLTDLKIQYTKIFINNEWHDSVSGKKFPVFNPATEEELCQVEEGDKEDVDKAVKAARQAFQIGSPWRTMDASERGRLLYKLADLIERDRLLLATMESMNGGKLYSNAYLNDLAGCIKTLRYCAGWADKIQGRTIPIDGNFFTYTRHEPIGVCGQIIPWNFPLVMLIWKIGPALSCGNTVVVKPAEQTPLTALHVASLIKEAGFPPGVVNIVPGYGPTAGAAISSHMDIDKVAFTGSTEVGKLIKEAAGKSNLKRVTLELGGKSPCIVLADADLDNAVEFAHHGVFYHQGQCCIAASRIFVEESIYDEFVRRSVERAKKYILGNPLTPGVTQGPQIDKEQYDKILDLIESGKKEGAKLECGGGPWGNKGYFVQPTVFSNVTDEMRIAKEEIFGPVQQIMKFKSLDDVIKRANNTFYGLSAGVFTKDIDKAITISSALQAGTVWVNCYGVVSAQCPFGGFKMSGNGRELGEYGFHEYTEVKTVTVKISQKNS
Method description: qHTS Assay for Inhibitors of Aldehyde Dehydrogenase 1 (ALDH1A1)
Condition: Purified ALDH1A1, NADH fluorescence, propionaldehyde substrate; series mostly up to 75.3 µM
The campaign covered roughly 220,000 compounds. About 16,000 (7.3%) were called active. Not shown: some 25% with an inconclusive outcome. Calls follow the shape of the dose curve; as a rule, active = well fitted inhibition curve with a large enough effect (not every such curve was filed as active); inconclusive = small, poorly fitted or top-dose-only effect, or another doubt; inactive = no such curve, though single readings can be large or run the other way. The sample holds actives, similar compounds and a random draw of the others, so the mix is not that of the screen.
Log the outcome using a class from Yes (active), No (inactive)

Please state the recorded outcome for this molecule: COc1ccc(-c2nc3c(c4c2C[C@H](c2ccccc2)OC4)CN(C(=O)c2cccnc2)CC3)c(C)c1 Yes

---

Tested target: Aldehyde dehydrogenase 1A1 (Homo sapiens) (UniProt P00352)
Method description: qHTS Assay for Inhibitors of Aldehyde Dehydrogenase 1 (ALDH1A1)
Condition: Purified ALDH1A1, NADH fluorescence, propionaldehyde substrate; series mostly up to 75.3 µM
Among all 220,000 compounds or so, about 16,000 (7.3%) were called active. Another 25% or so got no clear call; they are omitted. Calls come from the whole dose curve; as a rule, active = well fitted inhibition curve with a large enough effect (not every such curve was filed as active); inconclusive = small, poorly fitted or top-dose-only effect, or another doubt; inactive = no such curve, though single readings can be large or run the other way. What follows is part of a selection rich in actives, with near analogues and random picks from the rest.
Response enum: active, inactive

O=C(O)c1ccc(NS(=O)(=O)c2ccc3c(c2)C(=O)c2cc(S(=O)(=O)Nc4ccc(C(=O)O)cc4)ccc2-3)cc1    inactive
Cc1ccccc1OC(=O)Cn1c(C(F)(F)F)nc2ccccc21    inactive

Recorded test outcome, item CN1CCN(C(=O)Cn2c(C(F)(F)F)nc3ccccc32)CC1 inactive

What call does the record list for CCC(C)NCC(=O)Nc1ccc([N+](=O)[O-])cc1C(=O)Nc1ccccc1F (stereo not given) ? inactive

Please share the test call associated with CC1=NN(C(=O)c2ccc(Br)cc2)C(O)(c2ccccc2)C1 (stereo not given) . inactive

For this molecule, state the assay outcome: Cc1cccc(C(=O)NNC(=O)c2cccc([N+](=O)[O-])c2)c1 inactive

# fetch the recorded call for Cc1c(CN2CCCC(C(=O)c3cccc(Cl)c3)C2)c(=O)n(-c2ccccc2)n1C (stereo not given) here inactive

# outcome recorded in this test, key = NC1CCN(O)C1=O (stereo not given) inactive

Write down the call the test reported for this molecule. Item: Cc1nn(CC(=O)N/N=C/c2ccc(F)cc2)c(C)c1[N+](=O)[O-] inactive

Which outcome was assigned to O=[N+]([O-])c1cccc(/C([O-])=C(/C(=S)Nc2ccccc2F)[n+]2ccccc2)c1 in this test? active

---

Tested target: Aldehyde dehydrogenase 1A1 (Homo sapiens)
Method description: qHTS Assay for Inhibitors of Aldehyde Dehydrogenase 1 (ALDH1A1)
Condition: Purified ALDH1A1, NADH fluorescence, propionaldehyde substrate; series mostly up to 75.3 µM
The whole screen tested about 220,000 compounds, of which about 16,000 (7.3%) were called active. About 25% were inconclusive and are not listed. The call rests on the fitted dose curve; in most records, active means well fitted inhibition curve with a large enough effect (not every such curve was filed as active); inconclusive means small, poorly fitted or top-dose-only effect, or another doubt; inactive means no such curve, though single readings can be large or run the other way. The sample as a whole holds a higher share of actives than the screen did.
One label from this list, please: true for active, false for inactive

Example results:
Cc1cc(C)n(-c2ccc3nncn3n2)n1    false
CCn1c(C(C)C)n[nH]c1=S    false
N#C/C(=C/c1cccc([N+](=O)[O-])c1)c1nnc2n1CCCCC2    true
CC(C)(C)C1CCc2c(sc3nc(SCC(N)=O)nc(N)c23)C1 (stereo not drawn)    false
CCCCn1nc(C(=O)OCC(=O)Nc2sccc2C(N)=O)c2ccccc2c1=O    false

Dear all, I need the recorded test outcome for CC(=O)Nc1cccc(-c2nc3ccccc3s2)c1C , thank you. false

---

Tested target: Aldehyde dehydrogenase 1A1 (Homo sapiens)
Method description: qHTS Assay for Inhibitors of Aldehyde Dehydrogenase 1 (ALDH1A1)
Condition: Purified ALDH1A1, NADH fluorescence, propionaldehyde substrate; series mostly up to 75.3 µM
The whole screen tested about 220,000 compounds, of which about 16,000 (7.3%) were called active. Another 25% or so got no clear call; they are omitted. The call rests on the fitted dose curve; in most records, active means well fitted inhibition curve with a large enough effect (not every such curve was filed as active); inconclusive means small, poorly fitted or top-dose-only effect, or another doubt; inactive means no such curve, though single readings can be large or run the other way. The sample holds actives, similar compounds and a random draw of the others, so the mix is not that of the screen.
// classify into T for active, F for inactive

Cc1cccc(Oc2c([N+](=O)[O-])c(=O)n(C)c3ccccc23)c1    T
CCCCNC(=O)CSc1nc2ccc(NC(=O)CSc3nnc(COc4ccccc4C)n3C)cc2s1    T
Cc1cccnc1NC(=O)CSc1nnc(COc2ccc(C(C)C)cc2)n1C    F
Cc1ccc(-c2nnn(CC(=O)N(Cc3ccco3)C(C(=O)NC(C)(C)C)c3ccncc3)n2)o1 (stereo not given)    F
COc1cccc(C(=O)Oc2cc(C)[nH]c(=O)c2[N+](=O)[O-])c1    F
CCN(CC)S(=O)(=O)c1ccc(N(C)Cc2cccc(OC)c2OC)nc1    F

Could you kindly confirm the outcome this assay logged for COC(=O)C1=C(C)N(C)C(=O)NC1c1ccc([N+](=O)[O-])o1 (stereo not given) ? T

Look up the recorded call for CCCCNC(=O)CSc1nc2ccc(NC(=O)CSc3nnc(N)s3)cc2s1 in this test. T

Just curious, what result did Nc1nnc(SCC(=O)Nc2ccc3nc(SCC(=O)Nc4ccccc4)sc3c2)s1 get here? F

In this assay, the call recorded for COc1ccc2occ(C(=O)c3ccc(N=C(C)N(C)C)cc3)c2c1 was what? F

---

Tested target: Aldehyde dehydrogenase 1A1 (Homo sapiens) (UniProt P00352)
Method description: qHTS Assay for Inhibitors of Aldehyde Dehydrogenase 1 (ALDH1A1)
Condition: Purified ALDH1A1, NADH fluorescence, propionaldehyde substrate; series mostly up to 75.3 µM
Out of some 220,000 compounds screened, about 16,000 (7.3%) were called active. Inconclusive results (about 25%) are left out. Calls follow the shape of the dose curve; as a rule, active = well fitted inhibition curve with a large enough effect (not every such curve was filed as active); inconclusive = small, poorly fitted or top-dose-only effect, or another doubt; inactive = no such curve, though single readings can be large or run the other way. This excerpt belongs to a sample that is enriched for actives.
Respond with a class label; see Y for active, N for inactive

Below are worked cases with known answers.
CC(C)OCCCNC(=O)c1cc(Sc2ccc(F)cc2)nc2ccccc12    N
Cc1cccc(CNc2cc(-c3ccccc3Cl)ncn2)c1    N
Cn1c(Cc2cccc3ccccc23)nnc1SCC(=O)N1CCN(c2cccc(Cl)c2)CC1    N
Cc1oc(-c2ccccc2Cl)[n+]([O-])c1C    Y

What call does the record list for CCC(=O)Nc1ccc2c(c1)nc(CCN1CCN(C)CC1)n2C ? N

How was CC(C(=O)N=Nc1c(O)n(C)c2ccc(Br)cc12)n1cnc2ccccc2c1=O (configuration not stated) classified in this test? N

---

Tested target: Aldehyde dehydrogenase 1A1 (Homo sapiens)
Method description: qHTS Assay for Inhibitors of Aldehyde Dehydrogenase 1 (ALDH1A1)
Condition: Purified ALDH1A1, NADH fluorescence, propionaldehyde substrate; series mostly up to 75.3 µM
Out of some 220,000 compounds screened, about 16,000 (7.3%) were called active. Not shown: some 25% with an inconclusive outcome. Calls follow the shape of the dose curve; as a rule, active = well fitted inhibition curve with a large enough effect (not every such curve was filed as active); inconclusive = small, poorly fitted or top-dose-only effect, or another doubt; inactive = no such curve, though single readings can be large or run the other way. The sample as a whole holds a higher share of actives than the screen did.
Mark one answer only. Choices: 1 for active, 0 for inactive

Cc1nn(-c2ccccc2)c2c1C(c1ccc(F)cc1)C(C#N)=C(N)O2 (stereo not given)    1
COc1ccccc1C1C(C#N)=C(N)Oc2c1c(-c1ccccc1)nn2-c1ccccc1 (stereo not given)    0
NC(=O)c1ccccc1N(Cc1ccccc1)S(=O)(=O)c1ccccc1    0
CCCc1[nH]nc2c1C(c1c(C)nn(-c3ccccc3)c1Cl)C(C#N)=C(N)O2 (stereo not given)    0

Now look at this one.
Tell me the recorded outcome of this test for CCc1ccc(C2C(C#N)=C(N)Oc3n[nH]c(CC(=O)OC)c32)cc1 (stereo not given) . 0

---

Tested target: Aldehyde dehydrogenase 1A1 (Homo sapiens) (UniProt P00352)
Method description: qHTS Assay for Inhibitors of Aldehyde Dehydrogenase 1 (ALDH1A1); also: potency is read from the fitted curve at half-maximal effect
Condition: Purified ALDH1A1, NADH fluorescence, propionaldehyde substrate; series mostly up to 75.3 µM
Screen size: about 220,000 compounds; about 16,000 (7.3%) were called active. Roughly 25% stayed inconclusive and do not appear here. The sample as a whole holds a higher share of actives than the screen did.
Readout name: Potency

Past entries and their recorded results:
O=C(Nc1ccc2cn[nH]c2c1)c1ccc(S(=O)(=O)N2CCOCC2)cc1    inactive
COc1ccccc1NC(=O)C1=C(C)NC(=O)NC1c1ccc(C)s1 (stereo not given)    inactive
Cc1cccc(N=Nc2c(C)[nH]n(-c3ccccc3)c2=O)c1    inactive
O=C(CSc1nc2ccccc2[nH]1)c1cccs1    inactive
CCN(CC)c1ccc2c(Nc3ccccc3)c(C=O)c(=O)oc2c1    1.58 µM (active)

Recorded Potency of NC(=O)Cc1ccc2sc(-c3ccccc3)nc2c1 , please. inactive

Any idea what Potency was measured for S=C(Nc1cccc(Cl)c1)Nc1ccc2cn[nH]c2c1 ? 28.2 µM (active)

Name the recorded Potency for CCCOC(=O)c1[nH]c2c(c1C)C(=O)CC(c1cc(OC)c(OC)c(OC)c1)C2 (stereo not given) . 0.355 µM (active)

Fill blank: measured Potency of the molecule CCCOCC(O)CC(CC)C(=O)NNC(=S)Nc1ccccc1 (stereo not given) is ____. inactive

Data request, read-out Potency, for O=C(CCC(=O)Nc1ccccc1)N/N=C/c1ccccc1F inactive
